Data origin: patent US20090018093

system: Immunoglobulin E (IgE) (Homo sapiens), P01854-1; experiment: filter; conditions: 2'-OMe at 15; 3' idT [15 (2'-OMe C); 38 (3' inverted dT)]; DPBS Mg/Ca, BSA
Sequence (P01854 other isoform, or with tags, fused parts or gaps): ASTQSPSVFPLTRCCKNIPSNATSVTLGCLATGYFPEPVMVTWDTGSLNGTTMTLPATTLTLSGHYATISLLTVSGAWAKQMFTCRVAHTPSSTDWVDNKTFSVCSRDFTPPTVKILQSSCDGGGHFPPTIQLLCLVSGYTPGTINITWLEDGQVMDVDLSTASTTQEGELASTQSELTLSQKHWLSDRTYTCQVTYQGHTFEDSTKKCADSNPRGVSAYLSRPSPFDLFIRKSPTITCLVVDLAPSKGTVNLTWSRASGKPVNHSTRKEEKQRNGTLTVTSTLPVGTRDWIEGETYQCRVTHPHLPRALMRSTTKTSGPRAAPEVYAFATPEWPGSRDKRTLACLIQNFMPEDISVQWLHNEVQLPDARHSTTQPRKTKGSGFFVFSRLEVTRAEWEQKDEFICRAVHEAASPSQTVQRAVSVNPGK

Sequence data | Kd [nM]
GGGGCTACTTTATCCGTTCCTCCTAGTGGGTAGCCCCT [ARC1279] | 0.8

----------
tested on: Immunoglobulin E (IgE) (Homo sapiens), P01854-1; test: filter; details: 2'-OMe at 23; 3' idT; DPBS Mg/Ca, BSA
pKd: −log10 of the molar value.

Sequence data | pKd
GGGGCTACTTTATCCGTTCCTCCTAGTGGGTAGCCCCN [ARC1287] | 9.00

----------
system: Immunoglobulin E (IgE) (Homo sapiens), P01854-1; test: filter; conditions: 2'-OMe C,U and G16; other A,G deoxy; 3' idT [2'-OMe: 3,4,5,11,12,13,15,16,22,23; 2'-deoxy: 1,2,6,7,8,9,10,14,17,18,19,20,21; 24 = 3' inverted dT]; dPBS Ca/Mg + BSA, RT

Sequence data | Kd (nM)
AGCCUGGGGACCCAUGGGGGGCU [ARC1258] | 15

----------
test system: Immunoglobulin E (IgE) (Homo sapiens), P01854-1; assay: filter; conditions: as printed mAmGmCmCmUdGmG-s-dGmAmCmCmCmAmU-s-dG-s-mGdG-s-dGdG-s-dGmCmU-3T [2'-OMe: 1-5,7,10-15,17,22,23; deoxy: 6,8,9,16,18-21; phosphorothioate after 8,15,16,18,20; 24 = 3' inverted dT]; dPBS Ca/Mg + BSA, RT

Sequence data | Unit symbol | Kd
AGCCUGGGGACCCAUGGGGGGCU [ARC1384] | nM | 0.5

----------
Reported pIC50 values are given for each entry in this list.
test system: Immunoglobulin E (IgE) (Homo sapiens), P01854-1; assay: inhibition; conditions: 2'-OMe C,U; deoxy A,G; FACS, 15 nM IgE
pIC50: −log10 of the molar value.

Sequence data | System under test | pIC50
GUUCUGGGGACCCAUGGGGGAAC [ARC442] | Immunoglobulin E (IgE) (Homo sapiens), P01854-1 | 7.23
GCCUGGGGACCCAUGGGGGGC [ARC444] | Immunoglobulin E (IgE) (Homo sapiens), P01854-1 | 7.28
AGUUCUGGGGACCCAUGGGGGAACU [ARC443] | Immunoglobulin E (IgE) (Homo sapiens), P01854-1 | 7.52
UAGCCUGGGGACCCAUGGGGGGCUA [ARC446] | Immunoglobulin E (IgE) (Homo sapiens), P01854-1 | 7.47

----------
system: Immunoglobulin E (IgE) (Homo sapiens), P01854-1; assay: filter; settings: 2'-OMe at 37; 3' idT [2'-OMe: 37; 38 = 3' inverted dT]; DPBS Mg/Ca, BSA
pKd: −log10 of the molar value.

Sequence data | pKd
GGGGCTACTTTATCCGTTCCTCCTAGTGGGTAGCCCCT [ARC1301] | 9.30

----------
tested on: Immunoglobulin E (IgE) (Homo sapiens), P01854-1; assay: filter; settings: ARC1335 chemistry with dI16; G17 deoxy as printed; 3' idT [16=dI (G parent); 17=deoxy G; 24=3' inverted dT]; DPBS Mg/Ca, 0.1 mg/mL BSA, RT
pKd: −log10 of the molar value.
Value type: pKd

Sequence data | Value type | Val
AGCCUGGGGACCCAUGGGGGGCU [ARC1562] | pKd | 9.22

----------
system: Immunoglobulin E (IgE) (Homo sapiens), P01854-1; assay: filter; conditions: ARC1335 chemistry with dI17; 3' idT [17=dI (G parent); 24=3' inverted dT]; DPBS Mg/Ca, 0.1 mg/mL BSA, RT
pKd: −log10 of the molar value.

Sequence data | pKd
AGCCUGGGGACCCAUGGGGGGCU [ARC1563] | 8.66

----------
test system: Immunoglobulin E (IgE) (Homo sapiens), P01854-1; experiment: filter; conditions: dRmY (2'-OMe C,U); 7-deaza-dG7 [7-deaza-dG at 7; 2'-OMe C3,C4,U5,C11,C12,C13,U15,C22,U23; A,G 2'-deoxy]; DPBS Mg/Ca, 0.1 mg/mL BSA, RT
Value type: Kd (nM)

Sequence data | Value type | Unit symbol | Val
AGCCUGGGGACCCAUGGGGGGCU [ARC904] | Kd | nM | 8

----------
system: Immunoglobulin E (IgE) (Homo sapiens), P01854-1; assay: filter; conditions: ARC1666 pattern plus PS between G9 and A10; 3' idT; dPBS Ca/Mg + BSA, RT
Value type: Kd (nM)

Sequence data | Value type | Val
AGCCUGGGNGNACCCAUNNNGNNGNNGCUN [ARC2976] | Kd | 0.3

----------
system: Immunoglobulin E (IgE) (Homo sapiens), P01854-1; test: filter; conditions: 2'-OMe at 35; 3' idT [2'-OMe: 35; 38 = 3' inverted dT]; DPBS Mg/Ca, BSA
Value type: Kd (nM)

Sequence data | Val
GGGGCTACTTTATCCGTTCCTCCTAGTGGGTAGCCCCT [ARC1299] | 0.5

----------
test system: Immunoglobulin E (IgE) (Homo sapiens), P01854-1; test: inhibition; settings: 2'-OMe/2'-deoxy mix, PS; 3' idT [PS after 8,15,16,18,20; 2'-OMe/2'-deoxy mix; 3' idT left out]; FACS, 2.5 nM IgE
pIC50: −log10 of the molar value.

Sequence data | System under test | pIC50
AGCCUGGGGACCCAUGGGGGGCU [ARC1384] | Immunoglobulin E (IgE) (Homo sapiens), P01854-1 | 8.36

----------
system: Immunoglobulin E (IgE) (Homo sapiens), P01854-1; test: filter; details: 2'-OMe/2'-deoxy mix, dI16,dI20, PS; 3' idT [16=dI, 20=dI (G parent); 24=3' inverted dT; phosphorothioate linkage N's left out]; DPBS Mg/Ca, 0.1 mg/mL BSA, RT
pKd: −log10 of the molar value.
Value type: pKd

Sequence data | Val
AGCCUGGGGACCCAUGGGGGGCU [ARC1642] | 9.40

----------
tested on: Immunoglobulin E (IgE) (Homo sapiens), P01854-1; assay: filter; settings: 2'-OMe U at 6; 3' idT [6 (2'-OMe U); 38 (3' inverted dT)]; DPBS Mg/Ca, BSA
Value type: Kd (nM)

Sequence data | Value type | Unit symbol | Val
GGGGCUACTTTATCCGTTCCTCCTAGTGGGTAGCCCC [ARC1270] | Kd | nM | 0.2

----------
tested on: Immunoglobulin E (IgE) (Homo sapiens), P01854-1; test: filter; settings: ARC1335 chemistry with dI2; 3' idT [2=dI (G parent); 24=3' inverted dT]; DPBS Mg/Ca, 0.1 mg/mL BSA, RT
pKd: −log10 of the molar value.

Sequence data | pKd
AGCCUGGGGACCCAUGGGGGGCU [ARC1548] | 8.48

----------
tested on: Immunoglobulin E (IgE) (Homo sapiens), P01854-1; assay: filter; conditions: 2'-OMe at 1-4,7,33-37; PS 16-17; 3' idT [2'-OMe at 1-4,7,33-37; PS linkage 16-17 (internal N = PS, not a base); 3' inverted dT cap (terminal N, left out)]; DPBS Mg/Ca, BSA
Value type: Kd

Sequence data | Val
GGGGCTACTTTATCCGTTCCTCCTAGTGGGTAGCCCC [ARC1399] | 1.8 nM

----------
tested on: Immunoglobulin E (IgE) (Homo sapiens), P01854-1; experiment: filter; details: 2'-OMe U at 31; 3' idT; DPBS Mg/Ca, BSA
Value type: Kd

Sequence data | System under test | Val
GGGGCTACTTTATCCGTTCCTCCTAGTGGGUAGCCCCN [ARC1295] | Immunoglobulin E (IgE) (Homo sapiens), P01854-1 | 3 nM

----------
tested on: Immunoglobulin E (IgE) (Homo sapiens), P01854-1; test: inhibition; details: 2'-OMe/2'-deoxy mix, PS; 3' idT [PS after 5,6,7,8,15,16,17,18,19,20,21; 2'-OMe/2'-deoxy mix; 3' idT left out]; FACS, 2.5 nM IgE

Sequence data | IC50
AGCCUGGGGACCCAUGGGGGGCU [ARC1573] | 69.4 nM

----------
system: Immunoglobulin E (IgE) (Homo sapiens), P01854-1; assay: filter; settings: 2'-OMe A1,G2,G20,G21 and all C,U; rest 2'-deoxy as printed; 3' idT [2'-OMe A1,G2,C3,C4,U5,C11,C12,C13,U15,G20,G21,C22,U23; rest 2'-deoxy; 3' inverted dT at 24]; DPBS Mg/Ca, 0.1 mg/mL BSA, RT
pKd: −log10 of the molar value.

Sequence data | pKd
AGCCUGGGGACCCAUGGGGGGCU [ARC1264] | 7.33
